Data origin, for the record: ChEMBL document CHEMBL4261602

tested on: Quadruplex DNA; test: Stabilization of human FAM-5'-d(AGGGTTAGGGTTAGGGTTAGGG)-3'-BHQ1 telomeric G4 quadruplex DNA assessed as change in melting temperature at 1 uM in presence of 50 fold excess of competitor ds26 oligonucleotide DNA by FRET assay; assay type: nucleic-acid assay
VALUE KIND: ΔTm (°C)

Illustrative cases are given below, each with its answer.
Looking up N=C(N)NCCCNC(=O)c1cc2c(NCCNC(=N)N)c3c(c(NCCNC(=N)N)c2s1)C(=O)c1ccccc1C3=O , I found its ΔTm recorded as 19

Noted for N=C(N)NCCCNC(=O)c1cc2c(NCCOCCN)c3c(c(NCCOCCN)c2s1)C(=O)c1ccccc1C3=O : its ΔTm reads 14

Reported ΔTm for N=C(N)NCCCNC(=O)c1cc2c(NCCCCCN)c3c(c(NCCCCCN)c2s1)C(=O)c1ccccc1C3=O was 18

Memo: N=C(N)NCCNC(=O)c1cc2c(NCCNC(=N)N)c3c(c(NCCNC(=N)N)c2s1)C(=O)c1ccccc1C3=O , reported ΔTm: 10

response.value for N=C(N)NCCCNC(=O)c1cc2c(NCCCNC(=N)N)c3c(c(NCCCNC(=N)N)c2s1)C(=O)c1ccccc1C3=O (field: ΔTm) = 17

(A) N=C(N)NCCCNC(=O)c1cc2c(NCCCNC(=N)N)c3c(c(NCCCNC(=N)N)c2o1)C(=O)c1ccccc1C3=O
(B) N=C(N)NCCNC(=O)c1cc2c(NCCCCCN)c3c(c(NCCCCCN)c2o1)C(=O)c1ccccc1C3=O
**Query** # argmax over ΔTm for candidates A and B Mark your selection by writing its label.
**Result** A
(A: 24 °C, B: 13 °C)

----------
assay: Selectivity ratio of Kb for human FAM-5'-d(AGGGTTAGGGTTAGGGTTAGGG)-3'-BHQ1 telomeric G4 quadruplex DNA to Kb for d(CAATCGGATCGAATTCGATCCGATTG) DNA (unknown origin)
VALUE KIND: Selectivity ratio

# example entries with known answers
For this compound ( N=C(N)NCCCNC(=O)c1cc2c(NCCCNC(=N)N)c3c(c(NCCCNC(=N)N)c2s1)C(=O)c1ccccc1C3=O ), measured Selectivity ratio is 1700

Item: N=C(N)NCCNC(=O)c1cc2c(NCCNC(=N)N)c3c(c(NCCNC(=N)N)c2o1)C(=O)c1ccccc1C3=O | Selectivity ratio: 2300

Selectivity ratio for N=C(N)NCCCNC(=O)c1cc2c(NCCCCCN)c3c(c(NCCCCCN)c2o1)C(=O)c1ccccc1C3=O is 1500

What the record says about N=C(N)NCCCNC(=O)c1cc2c(NCCOCCN)c3c(c(NCCOCCN)c2s1)C(=O)c1ccccc1C3=O : Selectivity ratio is 950

Selectivity ratio for N=C(N)NCCNC(=O)c1cc2c(NCCCCCN)c3c(c(NCCCCCN)c2o1)C(=O)c1ccccc1C3=O is 850

(I) N=C(N)NCCNC(=O)c1cc2c(NCCNC(=N)N)c3c(c(NCCNC(=N)N)c2s1)C(=O)c1ccccc1C3=O
(II) N=C(N)NCCCNC(=O)c1cc2c(NCCCNC(=N)N)c3c(c(NCCCNC(=N)N)c2o1)C(=O)c1ccccc1C3=O
**Query** Endpoint returns the identifier whose Selectivity ratio is numerically larger, either I or II . # respond with the chosen item's label
**Result** II
(II: 4550, I: 300)
